Values were extracted from patent US20180057581A1.

Target: T1, human M-CSF (human, UniProt P09603 33-255, limits assumed)
T1 construct: also called M-CSF (human); CSF-1
T1 sequence: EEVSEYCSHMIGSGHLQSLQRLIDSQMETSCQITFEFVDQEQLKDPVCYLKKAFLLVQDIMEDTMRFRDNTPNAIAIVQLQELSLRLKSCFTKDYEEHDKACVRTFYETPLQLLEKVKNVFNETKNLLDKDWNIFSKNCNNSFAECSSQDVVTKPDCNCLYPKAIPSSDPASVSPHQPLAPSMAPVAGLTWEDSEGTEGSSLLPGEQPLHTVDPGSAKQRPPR
Assay: soluble equilibrium titration (SET), Fab, monovalent
readout-kind: Kd

Sample records with Kd:
Laurine, Fab (Fab, V domains shown) VH: QVQLQQSGPGLVKPSQTLSLTCAISGDSVSSNSAAWNWIRQSPSRGLEWLGRTYYRSKWKKEYAQSVKSRITINPDTSKNQFSLQLNSVTPEDTAVYYCARDRYYYSAFDYWGQGTLVTVSS VL: DIALTQPASVSGSPGQSITISCTGTSSDVGGYNSVSWYQQHPGKAPKLMIYAVSNRPSGVSNRFSGSKSGNTASLTISGLQAEDEADYYCASYDERFTRVFGGGTKLTVLG :: 0.096 nM
Blanche, Fab (Fab, V domains shown) VH: QVQLQQSGPGLVKPSQTLSLTCAISGDSVSSNSAAWNWIRQSPSRGLEWLGRTYYRSKWKHEYAMSVKSRITINPDTSKNQFSLQLNSVTPEDTAVYYCARDRYYYSAFDYWGQGTLVTVSS VL: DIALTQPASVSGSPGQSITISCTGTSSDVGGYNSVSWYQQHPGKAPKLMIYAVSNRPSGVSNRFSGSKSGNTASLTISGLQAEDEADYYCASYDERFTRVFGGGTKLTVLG :: 0.096 nM
Caline, Fab (Fab, V domains shown) VH: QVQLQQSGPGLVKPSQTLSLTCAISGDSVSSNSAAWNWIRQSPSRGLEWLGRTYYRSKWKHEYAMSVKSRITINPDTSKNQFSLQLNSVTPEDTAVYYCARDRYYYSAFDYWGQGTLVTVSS VL: QSALTQPASVSGSPGQSITISCTGTSSDVGGYNSVSWYQQHPGKAPKLMIYAVSNRPSGVSNRFSGSKSGNTASLTISGLQAEDEADYYCASYDERFTRVFGGGTKLTVLG :: 0.014 nM
Meriem, Fab (Fab, V domains shown) VH: QVQLQQSGPGLVKPSQTLSLTCAISGDSVSTSSAAWNWIRQSPSRGLEWLGRTYYRSKWKKEYAQSVKSRITINPDTSKNQFSLQLNSVTPEDTAVYYCARDRYYYSAFDYWGQGTLVTVSS VL: QSALTQPASVSGSPGQSITISCTGTSSDVGGYNSVSWYQQHPGKAPKLIIYAVSNRPSGVSNRFSGSKSGNTASLTISGLQAEDEADYYCASYDERFTRVFGGGTKLTVLG :: 0.011 nM

Kindly consider the entry below.
# return recorded Kd for entry HeRX1-10G1, Fab (Fab, V domains shown, Prior art antibody) VH: QVQLQESGPGLVKPSQTLSLTCTVSDYSITSDYAWNWIRQFPGKGLEWMGYISYSGSTSYNPSLKSRITISRDTSKNQFSLQLNSVTAADTAVYYCASFDYAHAMDYWGQGTTVTVSS VL: DIVLTQSPAFLSVTPGEKVTFTCQASQSIGTSIHWYQQKTDQAPKLLIKYASESISGIPSRFSGSGSGTDFTLTISSVEAEDAADYYCQQINSWPTTFGGGTKLEIKR
> 1 nM
